Origin of values: PubChem BioAssay (NCI)

# Tested on: U251 CNS
# assayText: NCI tumour cell line growth inhibition, 48 h
TGI overview

[
  {
    "molecule": "C1COCCOCCOCCOCCO1.CC(=O)[CH-]C(C)=O.CC(=O)[CH-]C(C)=O.CC(=O)[CH-]C(C)=O.[V]",
    "recordedMeasurement": "52.8 µM"
  }
]

Entry C=CCCCCCCCCCOC1C=CC(OC(C)=O)C(COC(C)=O)O1 (stereo not given) — recorded TGI = > 100 µM

Entry COC(=O)C1C(OCc2ccccc2)C2CCC1(OC)C=C2C (stereo not given) — recorded TGI = > 100 µM

Entry CC1CCc2sc3[nH]c(=S)n(-c4ccccc4)c(=O)c3c2C1 (stereo not given) — recorded TGI = > 100 µM

Entry CC1C(=O)O[C@H]2C1CC[C@@]1(C)[C@H](O)CC[C@@]13C[C@]2(O)OO3 (stereo not given in full) — recorded TGI = > 100 µM

###

TGI overview
# Tested on: CCRF-CEM leukemia
# assayText: NCI tumour cell line growth inhibition, 48 h

Sample records with TGI:
[
  {
    "chemicalString": "CCc1nc2ccc(C(F)(F)F)cc2[nH]c1=O",
    "TGI": "> 100 µM"
  },
  {
    "chemicalString": "CCOC(=O)Nc1nc2c(C)cccc2s1",
    "TGI": "> 100 µM"
  }
]

Entry `CC[C@@]12C=CC(=S)N(CCSc3ccccc3)[C@@H]1c1c(n(S(=O)(=O)c3ccc(OC)cc3)c3ccccc13)CC2` — recorded TGI = > 100 µM

Entry `COc1cc(Nc2nc3ccc(C(F)(F)F)cc3nc2-c2ccccc2)cc(OC)c1OC` — recorded TGI = > 100 µM

Entry `NC1(C(=O)O)CCCC1` — recorded TGI = > 625 µM

###

TGI overview
# Test system: OVCAR-5 ovarian
# assayText: NCI tumour cell line growth inhibition, 48 h

Sample records with TGI:
[
  {
    "molecule": "O=C(O)C1CCCCC1c1c2ccc(=O)cc-2oc2cc(O)ccc12 (stereo not drawn)",
    "system": "OVCAR-5 ovarian",
    "TGI": "> 100 µM"
  },
  {
    "molecule": "O=C(NCc1ccncc1)C1COc2cc(-c3cc(=O)c4ccccc4o3)ccc2O1 (stereo not drawn)",
    "system": "OVCAR-5 ovarian",
    "TGI": "> 100 µM"
  }
]

Could you now look at the following molecule, please?
Entry CC1CCc2sc3[nH]c(=S)n(-c4ccccc4)c(=O)c3c2C1 (stereo not drawn) — recorded TGI = > 100 µM

###

# Tested on: NCI/ADR-RES ovarian
# assayText: NCI tumour cell line growth inhibition, 48 h
propertyName: TGI

Sample records with TGI:
[
  {
    "molecule": "CS(=O)(=O)OCCN(CCOS(C)(=O)=O)c1ccc(C=O)cc1",
    "propertyName": "TGI",
    "recordedMeasurement": "> 80.8 µM"
  },
  {
    "molecule": "CC(=O)OCC1OC(O/C=C(\\CN=[N+]=[N-])C(C)=O)C(OC(C)=O)C(OC(C)=O)C1OC(C)=O (centres undefined)",
    "propertyName": "TGI",
    "recordedMeasurement": "> 100 µM"
  },
  {
    "molecule": "c1ccc(-c2cc(-c3cccs3)c(-c3cccs3)o2)cc1",
    "propertyName": "TGI",
    "recordedMeasurement": "> 100 µM"
  }
]

Entry CC(=O)N1c2ccccc2C(C)C1c1[nH]c2ccccc2c1C (centres undefined) — recorded TGI = > 100 µM
